- Tested on: KM12 colon
- assay.notes: NCI tumour cell line growth inhibition, 48 h
value.type: TGI

Look over these answered cases.
IN: // query TGI value for entry COc1ccc(F)c(F)c1C(=O)c1cnc(NC2CCN(S(C)(=O)=O)CC2)nc1N
OUT: > 29.8 µM

IN: // query TGI value for entry Cc1nc(-c2cccnc2)sc1C(=O)/C=C/c1cccc([N+](=O)[O-])c1
OUT: > 100 µM

IN: // query TGI value for entry c1ccc2[nH]c(CNc3ccc(C4C[Se]N=N4)cc3)nc2c1 (stereo unspecified)
OUT: > 100 µM

IN: // query TGI value for entry O=C1CNS(=O)(=O)N1
OUT: > 100 µM

IN: // query TGI value for entry CCOC(=O)C1=CC(C)(C(=O)OCC)Nc2c(nc(N)[nH]c2=O)N1 (stereo unspecified)
OUT: > 10 µM

Now for another entry.
IN: // query TGI value for entry Cc1c(-c2ccccc2)[nH]n(C2=NCCN2)c1=O
OUT: > 100 µM

====

- Test system: ACHN renal
- assay.notes: NCI tumour cell line growth inhibition, 48 h
value.type: TGI

IN: // query TGI value for entry O=C1C(C(O)(C(F)(F)F)C(F)(F)F)CCC1C(O)(C(F)(F)F)C(F)(F)F (stereo not given)
OUT: > 61.5 µM

IN: // query TGI value for entry CC1(C)CC(=O)C(CC2C(=O)c3ccccc3C2=O)C(=O)C1
OUT: > 100 µM

IN: // query TGI value for entry CC(C)[O-].CC(C)[O-].O=c1cccccc1[O-].O=c1cccccc1[O-].[Ti+4]
OUT: > 100 µM

IN: // query TGI value for entry CCOC(=O)C1CCC(=O)N1C(=O)c1ccccc1Cl (stereo not given)
OUT: > 100 µM

Now for another entry.
IN: // query TGI value for entry CC(C)C(N)C(=O)NC(CCC(=O)NCCCCC(N)C(=O)NCCCNc1ccc([N+](=O)[O-])c2[nH]c3ccccc3c(=O)c12)C(N)=O (stereo not given)
OUT: > 100 µM

====

Overview of reported TGI across a group of molecules:
- Tested on: COLO 205 colon
- assay.notes: NCI tumour cell line growth inhibition, 48 h

Look over these answered cases.
IN: Write down the reported TGI of COc1ccc(OC)c2sc(N3C(=O)/C(=C/c4cccc([N+](=O)[O-])c4)N=C3c3ccccc3)nc12 , test system: COLO 205 colon.
OUT: > 100 µM

IN: Write down the reported TGI of c1ccc(C2CC(=NC3CCCCC3)Nc3ccccc3N2)cc1 (stereo not given) , test system: COLO 205 colon.
OUT: > 100 µM

IN: Write down the reported TGI of O=C1CS(=O)(=O)C(c2cccc(Oc3ccccc3)c2)N1c1cc(Cl)ccc1Cl (stereo not given) , test system: COLO 205 colon.
OUT: > 100 µM

IN: Write down the reported TGI of COC1C(O)C(O[C@H]2CC[C@@]3(C)C(CC[C@@H]4[C@@H]3CC[C@]3(C)[C@@H](C(C)OC5OC(CO)C(O)C(O)C5O)CC[C@]43O)C2)OC(C)C1OC1OC(CO)C(O)C(O)C1O (stereo not given in full) , test system: COLO 205 colon.
OUT: > 100 µM

IN: Write down the reported TGI of Cc1cc(C)c(/C=C(\C(=C/c2c(C)cc(C)cc2C)[N+](=O)[O-])[N+](=O)[O-])c(C)c1 , test system: COLO 205 colon.
OUT: > 100 µM

More entries:
IN: Write down the reported TGI of C[C@]12CC[C@@H]3c4ccc(O)cc4CC[C@H]3[C@@H]1C/C(=C\c1ccc(C#N)cc1)C2=O , test system: COLO 205 colon.
OUT: > 100 µM

IN: Write down the reported TGI of CCOC(=O)C1(Cc2ccc3ccccc3c2)CCCCC(=O)N1 (stereo not given) , test system: COLO 205 colon.
OUT: > 100 µM

IN: Write down the reported TGI of CC(=O)n1c(=O)c2cc3c(=O)n(-c4cccc(C#N)c4)c(=O)c3cc2c1=O , test system: COLO 205 colon.
OUT: > 100 µM

IN: Write down the reported TGI of COc1cc(CNc2nc3ccc(C(F)(F)F)cc3nc2-c2ccccc2)cc(OC)c1OC , test system: COLO 205 colon.
OUT: > 100 µM

IN: Write down the reported TGI of CC1(O)CCn2c(=O)c3cc4ccccc4cc3c(=O)n2C1O (stereo not given) , test system: COLO 205 colon.
OUT: > 100 µM

IN: Write down the reported TGI of COc1cc([N+](=O)[O-])c(OC)c2c(Nc3ccc(S(=O)(=O)O)c4cc(S(=O)(=O)O)cc(S(=O)(=O)O)c34)cc(C)nc12 , test system: COLO 205 colon.
OUT: > 100 µM

IN: Write down the reported TGI of S=C1NC2=C(CSC/C2=C\c2ccccc2)C(c2ccccc2)N1 (stereo not given) , test system: COLO 205 colon.
OUT: > 100 µM

IN: Write down the reported TGI of Cc1cc2c(cc1Cl)S/C(=C/C(=O)O)C(Nc1cccc3nsnc13)=NS2(=O)=O , test system: COLO 205 colon.
OUT: > 61.5 µM

IN: Write down the reported TGI of CCN(CC)CCO/N=C1\CC[C@H]2[C@@H]3CCc4cc(OC)ccc4[C@H]3CC[C@]12C , test system: COLO 205 colon.
OUT: 3.03 µM
